system: Mycolicibacterium smegmatis; test: Antimycobacterial activity against Mycobacterium smegmatis ATCC 19420 after 72 hrs by broth microtiter dilution method; assay type: functional; settings: ATCC 19420, 72 h
Property: MIC (µM)

1 = CCCCC/C=C\C/C=C\CCCCCCCc1cc(=O)c2ccccc2n1C
2 = CCCCCCCCCC/C=C\CCCCCCCCc1cc(=O)c2ccccc2n1C
Of 1 and 2 , whose reported MIC is numerically smaller? // caller expects the label of the chosen entry
1

P = CCCCCC/C=C/c1cc(=O)c2ccccc2n1C
Q = CCCCCCCC/C=C\CCc1cc(=O)c2ccccc2n1C
Lab note: record which item had the higher MIC, P or Q . Your answer should be the label attached to the chosen record.
P

These data points were gathered from ChEMBL document CHEMBL1641521.
